# System name: TGF-beta receptor type-2 (Homo sapiens); further: in the data inactive means no Kd found up to 30 µM
# Sequence (P37173 whole entry): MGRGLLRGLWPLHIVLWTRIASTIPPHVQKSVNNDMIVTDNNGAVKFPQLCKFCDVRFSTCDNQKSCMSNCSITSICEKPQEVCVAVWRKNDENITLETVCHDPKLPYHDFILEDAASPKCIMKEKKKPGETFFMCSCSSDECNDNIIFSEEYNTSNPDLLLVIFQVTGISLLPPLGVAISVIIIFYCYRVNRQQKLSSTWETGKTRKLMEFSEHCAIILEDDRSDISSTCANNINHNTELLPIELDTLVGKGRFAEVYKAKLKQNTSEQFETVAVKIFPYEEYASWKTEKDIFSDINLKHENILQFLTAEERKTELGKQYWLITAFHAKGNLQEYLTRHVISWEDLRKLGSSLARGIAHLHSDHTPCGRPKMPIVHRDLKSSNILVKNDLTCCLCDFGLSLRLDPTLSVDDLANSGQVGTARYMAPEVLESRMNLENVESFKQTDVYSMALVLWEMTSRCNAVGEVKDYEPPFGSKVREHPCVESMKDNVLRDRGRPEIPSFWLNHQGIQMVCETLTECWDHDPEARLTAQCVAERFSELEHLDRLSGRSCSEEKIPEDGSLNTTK
The source made the active and inactive calls.
Classes used: TRUE for active, FALSE for inactive

# Compound, Discrete label
data = [
    ("C=CC(=O)Nc1cccc(Nc2nc(Nc3ccc(N4CCN(C(C)=O)CC4)cc3OC)ncc2C(F)(F)F)c1", "FALSE"),
    ("COc1ccc(-c2ccc3ncc4c(c3c2)n(-c2ccc(N3CCNCC3)c(C(F)(F)F)c2)c(=O)n4C)cn1 [BGT-226 FREE BASE]", "FALSE"),
    ("CC1(COc2ccc3c(c2)ncn3-c2ccc3cccc(N4CCC(N)CC4)c3n2)COC1", "FALSE"),
    ("Cn1c(=O)c(F)c(Nc2ccc(I)cc2F)c2c(=O)n(C[C@@H](O)CO)cnc21", "FALSE"),
    ("CC[C@@](C)(Nc1ccnc(-c2c[nH]c3ncccc23)n1)C(=O)NCC(F)(F)F", "FALSE"),
    ("COc1cccc2cc(-c3nc([C@H]4CC[C@H](C(=O)O)CC4)n4ncnc(N)c34)[nH]c12", "FALSE"),
    ("COc1cc2nccc(Oc3ccc(NC(=O)C4(C(=O)Nc5ccc(F)cc5)CC4)cc3)c2cc1OC [CABOZANTINIB]", "FALSE"),
    ("C#Cc1cccc(Nc2ncnc3cc4c(cc23)OCCOCCOCCO4)c1", "FALSE"),
    ("C=CCn1c(=O)c2cnc(Nc3ccc(N4CCN(C)CC4)cc3)nc2n1-c1cccc(C(C)(C)O)n1", "FALSE"),
    ("O=C(NC[C@H](O)CO)c1ccncc1Nc1ccc(I)cc1F", "FALSE"),
    ("O=c1[nH]c([C@@H]2CCCN2)nc2c1oc1ccc(Cl)cc12", "FALSE"),
    ("Cn1c(=O)n(-c2ccc(C(C)(C)C#N)cc2)c2c3cc(-c4cnc5ccccc5c4)ccc3ncc21", "FALSE"),
    ("Cc1c(NC(=O)OC[C@@H]2COCCN2)cn2ncnc(Nc3ccc4c(cnn4Cc4cccc(F)c4)c3)c12", "FALSE"),
    ("Cc1c(Cn2c(C)nc3c(C(=O)O)cc(N4CCOCC4)cc32)cccc1C(F)(F)F", "FALSE"),
    ("FC(F)(F)c1ccc(CNc2ccc(Cc3c[nH]c4ncc(Cl)cc34)cn2)cn1", "FALSE"),
    ("O=S(=O)(c1cccc2c(O)nccc12)N1CCCNCC1 [HYDROXYFASUDIL]", "FALSE"),
    ("O[C@H]1CC[C@H](Nc2ncc3nc(Nc4c(F)cc(F)cc4F)n([C@H]4CCOC4)c3n2)CC1", "FALSE"),
    ("N#CCNC(=O)c1ccc(-c2ccnc(Nc3ccc(N4CCOCC4)cc3)n2)cc1", "FALSE"),
    ("O=C(Nc1ccc(OC(F)(F)F)cc1)c1sccc1NCc1ccnc2ccccc12", "FALSE"),
    ("CN(c1ncccc1CNc1nc(Nc2ccc3c(c2)CC(=O)N3)ncc1C(F)(F)F)S(C)(=O)=O", "FALSE"),
    ("CCOc1ccn(-c2ccc(F)cc2)c(=O)c1C(=O)Nc1ccc(Oc2ccnc(N)c2Cl)c(F)c1", "FALSE"),
    ("Cc1cc(-c2cc(OC(=O)c3ccccc3)ccc2Cl)cc2nnc(Nc3ccc(OCCN4CCCC4)cc3)nc12", "TRUE"),
    ("CC(C)(O)CC(=O)NCCn1ccc2ncnc(Nc3ccc(Oc4cccc(C(F)(F)F)c4)c(Cl)c3)c21", "FALSE"),
    ("C[C@@H]1COC(Nc2ccc3ncnc(Nc4ccc(OCc5nccs5)c(Cl)c4)c3c2)=N1", "FALSE"),
    ("Cc1cc(Nc2nc(N[C@@H](C)c3ncc(F)cn3)ncc2Cl)n[nH]1", "FALSE"),
    ("CCN1CCN(Cc2ccc(Nc3ncc(F)c(-c4cc(F)c5nc(C)n(C(C)C)c5c4)n3)nc2)CC1", "FALSE"),
    ("Cn1cc(-c2[nH]c3cc(NC(=O)[C@H](N)C4CCCCC4)cc4c3c2C=NNC4=O)cn1", "TRUE"),
    ("O=C(O)c1ccc2c(c1)nc(Nc1cccc(Cl)c1)c1ccncc12", "FALSE"),
    ("CN1CCN(c2nc(C3=C(c4c[nH]c5ccccc45)C(=O)NC3=O)c3ccccc3n2)CC1", "FALSE"),
    ("COc1cc2ncnc3c2cc1OCCCCCN(C)Cc1ccc(Br)cc1N3", "FALSE"),
]

----------
# System name: Ephrin type-B receptor 4 (Homo sapiens, UniProt P54760); further: in the data inactive means no Kd found up to 30 µM
# Sequence (P54760 whole entry): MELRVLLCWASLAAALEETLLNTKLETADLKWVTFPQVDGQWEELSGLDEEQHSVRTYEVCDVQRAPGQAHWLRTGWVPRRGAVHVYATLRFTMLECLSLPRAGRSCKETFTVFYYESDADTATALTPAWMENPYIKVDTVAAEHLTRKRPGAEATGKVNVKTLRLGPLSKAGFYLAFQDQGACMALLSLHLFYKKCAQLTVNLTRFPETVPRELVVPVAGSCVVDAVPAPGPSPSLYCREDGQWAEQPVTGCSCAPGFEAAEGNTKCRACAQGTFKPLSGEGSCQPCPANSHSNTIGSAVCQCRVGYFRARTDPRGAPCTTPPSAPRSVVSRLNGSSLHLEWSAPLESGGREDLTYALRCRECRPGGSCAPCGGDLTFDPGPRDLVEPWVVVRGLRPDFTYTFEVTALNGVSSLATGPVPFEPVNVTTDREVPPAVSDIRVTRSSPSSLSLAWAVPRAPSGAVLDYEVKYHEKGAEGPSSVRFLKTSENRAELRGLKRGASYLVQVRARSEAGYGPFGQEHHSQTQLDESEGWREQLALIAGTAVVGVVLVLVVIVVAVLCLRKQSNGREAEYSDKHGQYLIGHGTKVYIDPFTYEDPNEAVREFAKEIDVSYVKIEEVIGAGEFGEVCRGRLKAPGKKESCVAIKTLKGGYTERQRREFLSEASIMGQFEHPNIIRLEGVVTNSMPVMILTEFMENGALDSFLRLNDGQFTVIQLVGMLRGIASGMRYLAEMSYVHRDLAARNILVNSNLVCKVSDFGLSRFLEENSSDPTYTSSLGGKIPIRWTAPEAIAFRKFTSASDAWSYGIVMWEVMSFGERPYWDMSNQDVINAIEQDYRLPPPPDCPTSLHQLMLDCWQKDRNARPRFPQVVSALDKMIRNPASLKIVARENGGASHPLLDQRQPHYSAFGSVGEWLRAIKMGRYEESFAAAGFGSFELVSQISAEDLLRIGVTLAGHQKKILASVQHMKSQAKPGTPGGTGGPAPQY
Calls of active or inactive are those of the source.
Classes used: true = active, false = inactive

# Compound, System name, Discrete label
data = [
    ("O=c1[nH]c([C@@H]2CCCN2)nc2c1oc1ccc(Cl)cc12", "Ephrin type-B receptor 4 (Homo sapiens, UniProt P54760)", "false"),
    ("COc1cc2nccc(Oc3ccc(NC(=O)C4(C(=O)Nc5ccc(F)cc5)CC4)cc3)c2cc1OC [CABOZANTINIB]", "Ephrin type-B receptor 4 (Homo sapiens, UniProt P54760)", "false"),
    ("Cc1ccc(C(=O)Nc2ccc(Oc3cc4cnn(C)c4cc3-c3cn[nH]c3)c(F)c2)c(=O)n1-c1ccc(F)cc1", "Ephrin type-B receptor 4 (Homo sapiens, UniProt P54760)", "false"),
    ("COc1ccc2c(OCc3nnc4ccc(-c5ccccc5)nn34)ccnc2c1", "Ephrin type-B receptor 4 (Homo sapiens, UniProt P54760)", "false"),
    ("C#Cc1cccc(Nc2ncnc3cc4c(cc23)OCCOCCOCCO4)c1", "Ephrin type-B receptor 4 (Homo sapiens, UniProt P54760)", "false"),
    ("Cc1cc(-c2cc(OC(=O)c3ccccc3)ccc2Cl)cc2nnc(Nc3ccc(OCCN4CCCC4)cc3)nc12", "Ephrin type-B receptor 4 (Homo sapiens, UniProt P54760)", "true"),
    ("C=CCn1c(=O)c2cnc(Nc3ccc(N4CCN(C)CC4)cc3)nc2n1-c1cccc(C(C)(C)O)n1", "Ephrin type-B receptor 4 (Homo sapiens, UniProt P54760)", "false"),
    ("Cc1cc(C(=O)Nc2cc(Oc3ccc4nc(NC(=O)C5CC5)cn4n3)ccc2C)n(C)n1", "Ephrin type-B receptor 4 (Homo sapiens, UniProt P54760)", "false"),
    ("C=CC(=O)Nc1cccc(Nc2nc(Nc3ccc(N4CCN(C(C)=O)CC4)cc3OC)ncc2C(F)(F)F)c1", "Ephrin type-B receptor 4 (Homo sapiens, UniProt P54760)", "false"),
    ("COc1cc2ncnc3c2cc1OCCCCCN(C)Cc1ccc(Br)cc1N3", "Ephrin type-B receptor 4 (Homo sapiens, UniProt P54760)", "false"),
]

----------
# System name: AarF domain-containing protein kinase 1 (Homo sapiens); further: in the data inactive means no Kd found up to 30 µM
# Sequence (Q86TW2 whole entry): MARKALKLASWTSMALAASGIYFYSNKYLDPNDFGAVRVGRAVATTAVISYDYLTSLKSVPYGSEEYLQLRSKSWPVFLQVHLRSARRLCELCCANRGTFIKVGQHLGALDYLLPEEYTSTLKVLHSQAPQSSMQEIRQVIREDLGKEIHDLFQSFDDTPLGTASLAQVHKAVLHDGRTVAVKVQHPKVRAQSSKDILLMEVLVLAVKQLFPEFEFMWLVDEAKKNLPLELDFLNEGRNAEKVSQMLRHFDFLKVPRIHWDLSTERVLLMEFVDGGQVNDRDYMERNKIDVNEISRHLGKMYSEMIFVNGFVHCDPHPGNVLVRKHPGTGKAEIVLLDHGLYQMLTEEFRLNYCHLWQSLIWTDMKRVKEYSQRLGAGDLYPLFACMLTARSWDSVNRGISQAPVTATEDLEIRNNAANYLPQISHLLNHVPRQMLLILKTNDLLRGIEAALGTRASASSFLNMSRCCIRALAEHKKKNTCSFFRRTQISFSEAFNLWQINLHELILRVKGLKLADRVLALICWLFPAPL
Active and inactive are the calls of the source.
Classes used: label 1 for active, label 0 for inactive

# Smiles, System name, Discrete label
data = [
    ("COc1cc2ncnc(Nc3ccc(O)cc3)c2cc1OC", "AarF domain-containing protein kinase 1 (Homo sapiens)", "label 0"),
    ("O=c1[nH]c([C@@H]2CCCN2)nc2c1oc1ccc(Cl)cc12", "AarF domain-containing protein kinase 1 (Homo sapiens)", "label 0"),
    ("CN1CCN(c2nc(C3=C(c4c[nH]c5ccccc45)C(=O)NC3=O)c3ccccc3n2)CC1", "AarF domain-containing protein kinase 1 (Homo sapiens)", "label 0"),
    ("C=CC(=O)Nc1cc(Nc2nccc(-c3cn(C)c4ccccc34)n2)c(OC)cc1N(C)CCN(C)C", "AarF domain-containing protein kinase 1 (Homo sapiens)", "label 0"),
    ("COc1cc2ncnc3c2cc1OCCCCCN(C)Cc1ccc(Br)cc1N3", "AarF domain-containing protein kinase 1 (Homo sapiens)", "label 0"),
    ("C=CCn1c(=O)c2cnc(Nc3ccc(N4CCN(C)CC4)cc3)nc2n1-c1cccc(C(C)(C)O)n1", "AarF domain-containing protein kinase 1 (Homo sapiens)", "label 1"),
    ("Cc1c(Cn2c(C)nc3c(C(=O)O)cc(N4CCOCC4)cc32)cccc1C(F)(F)F", "AarF domain-containing protein kinase 1 (Homo sapiens)", "label 0"),
    ("c1cc(OCCN2CCCCC2)cc(-c2n[nH]c3ccc(-c4nc[nH]n4)cc23)c1", "AarF domain-containing protein kinase 1 (Homo sapiens)", "label 0"),
    ("CCc1cc2c(cc1N1CCC(N3CCOCC3)CC1)C(C)(C)c1[nH]c3cc(C#N)ccc3c1C2=O", "AarF domain-containing protein kinase 1 (Homo sapiens)", "label 0"),
    ("COc1cc(Nc2ncc(F)c(Nc3ccc4c(n3)N(COP(=O)(O)O)C(=O)C(C)(C)O4)n2)cc(OC)c1OC", "AarF domain-containing protein kinase 1 (Homo sapiens)", "label 1"),
    ("CN(C)C/C=C/C(=O)Nc1cc2c(Nc3ccc(F)c(Cl)c3)ncnc2cc1O[C@H]1CCOC1", "AarF domain-containing protein kinase 1 (Homo sapiens)", "label 0"),
    ("C=CCN(/C=C1/C(=O)O[C@H](COC)[C@@]2(C)C1=C(O)C(=O)C1=C2[C@H](OC(C)=O)C[C@]2(C)C(=O)CC[C@@H]12)CC=C", "AarF domain-containing protein kinase 1 (Homo sapiens)", "label 0"),
    ("CNC(=O)c1cccc(-c2ccc3c(N4CCOC[C@@H]4C)nc(N4CCOC[C@@H]4C)nc3n2)c1", "AarF domain-containing protein kinase 1 (Homo sapiens)", "label 0"),
]
